Hello, the source for this data is patent US12624018B1, in case you need it.

// reported pIC50 for each item listed
- System: human NOD2 signaling
- protocol.text: Inhibition of human NOD2 signaling in HEK-Blue-hNOD2 cells (L18-MDP stimulated, SEAP reporter)
- Type: cell-based
- details: Homo sapiens, HEK-Blue hNOD2, HEK-Blue-hNOD2 cells, NOD2 ligand stimulation, SEAP reporter; read-out: hNOD2 IC50
Please note pIC50 is a logarithmic value: minus log10 of concentration in mol/L. Answer with that number alone.

Take a look at these entries with their results.
Problem: Record request: pIC50 value, item CNC(=O)c1ccc2nccc(Oc3cc(F)c(CC(=O)Nc4cnn(C(C)(C)C)c4)cc3C)c2c1
Solution: 9.70

Problem: Could you tell me which pIC50 is on file for Cc1cc(CC(=O)Nc2cnn(C(C)(C)C)c2)c(F)cc1Oc1ccnc2ccc(C(N)=O)cc12 ?
Solution: 9.30

Problem: Look up pIC50 for this compound: Cc1cc(CC(=O)Nc2cnn(C(C)(C)C)c2)c(F)cc1Oc1ccnc2cc(C)c(S(C)(=O)=O)cc12
Solution: 9.30

Problem: Form field: reported pIC50 of Cc1c(Oc2ccnc3ccc(C(N)=O)cc23)cc(F)c(CC(=O)Nc2cnn(C(C)(C)C)c2)c1F
Solution: 9.70

Problem: Find the recorded pIC50 belonging to CNC(=O)c1ccc2nccc(Oc3c(C)cc(CC(=O)Nc4cnn(C56CC(C5)C6)c4)cc3Cl)c2c1 and report it.
Solution: 7.33

Problem: For CC(C)(C)c1cc(NC(=O)Cc2ccc(Oc3ccnc4cc(F)c(C(N)=O)cc34)c(C(F)F)c2)n[nH]1 , what is its reported pIC50?
Solution: 8.85

Problem: Would you mind telling me what pIC50 value was observed for Cc1cc(CC(=O)Nc2cnn(C(C)(C)C)c2)ccc1Oc1ccnc2ccc(C(N)=O)cc12 ?
Solution: 9.52

Problem: Fill in the blank: the reported pIC50 of CC(C)(C)n1cc(NC(=O)Cc2ccc(Oc3ccnc4cc(F)c(C(N)=O)cc34)c(C(F)F)c2)cn1 is ____.
Solution: 8.66

Problem: Quick one: pIC50 for CCS(=O)(=O)c1ccc2nccc(Oc3cc(F)c(CC(=O)Nc4cnn(C(C)(C)C)c4)cc3C)c2c1 ?
Solution: 8.89

Problem: Recorded pIC50 of Cc1cc(CC(=O)Nc2cnn(C(C)(C)C)c2)c(F)cc1Oc1ccnc2ccc(-c3ncccc3C)cc12 , please.
Solution: 7.27

Others:
Problem: # input compound: Cc1cc(CC(=O)Nc2cnn(C34CC(C3)C4)c2)ccc1Oc1ccnc2ccc(S(C)(=O)=O)cc12 ; wanted: its pIC50
Solution: 8.54

Problem: Could you tell me which pIC50 is on file for Cc1cc(CC(=O)Nc2cnn(C(C)(C)C)c2)cc(C)c1Oc1ccnc2cc(F)c(C(N)=O)cc12 ?
Solution: 8.92

Problem: Reported pIC50, compound Cc1cc(CC(=O)Nc2cnn(C(C)C(F)(F)F)c2)ccc1Oc1ccnc2ccc(S(C)(=O)=O)cc12 (single isomer, unassigned) : ____
Solution: 7.57

Problem: # lookup: pIC50 of [2H]C([2H])([2H])NC(=O)c1cc2c(Oc3ccc(CC(=O)Nc4cnn(C(C)(C)C)c4)cc3C)ccnc2cc1F
Solution: 9.70

* * *

- assayed.system: RIPK2 enzyme (Homo sapiens)
- Construct: purchased Carna 09-128
- Sequence (O43353 1-299 limits assumed): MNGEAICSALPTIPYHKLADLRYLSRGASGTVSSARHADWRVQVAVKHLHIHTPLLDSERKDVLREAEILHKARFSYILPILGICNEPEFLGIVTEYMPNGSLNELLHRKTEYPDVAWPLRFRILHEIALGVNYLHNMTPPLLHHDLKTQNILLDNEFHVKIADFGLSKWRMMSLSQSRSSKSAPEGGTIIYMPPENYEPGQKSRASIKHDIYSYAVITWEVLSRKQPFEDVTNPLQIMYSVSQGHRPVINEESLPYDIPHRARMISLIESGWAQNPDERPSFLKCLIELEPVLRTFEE
- protocol.text: RIPK2 inhibition (ADP-Glo Kinase Assay)
- Assay type: biochemical
- details: RIPK2 5 nM, ATP 150 μM, MBP substrate, read-out: RIPK2 IC50
Listed below: IC50 values for each entry.
Expressed in nM, but write only the number.

Problem: Returns the measured IC50 for the input compound. Input: CC(C)(C)n1cc(NC(=O)Cc2ncc(Oc3ncnc4ccc(OC5CCNCC5)cc34)cc2F)cn1 [Compound 51]
Solution: 18.7

More entries:
Problem: What does the record list as IC50 for COc1ccc2ncnc(Oc3cnc(CC(=O)Nc4cc(C(C)(C)C)[nH]n4)c(F)c3)c2c1 [Compound 12] ?
Solution: 11.6

Problem: Which value of IC50 has been reported for COc1ccc2ncnc(Oc3ccc(CC(=O)Nc4cc(C5(C(F)(F)F)CC5)ccn4)c(F)c3)c2c1 [Compound 34] in the records?
Solution: 33.3

Problem: Given the compound CC(C)(C)c1cc(NC(=O)Cc2ncc(Oc3ncnc4ccc(OC5CCNCC5)cc34)cc2F)n[nH]1 [Compound 58] , what is its reported IC50?
Solution: 3.7
